system: S. pneumoniae 2407; experiment: MIC against S. pneumoniae 2407; type: cell-based; conditions: Table 2; S. pneumoniae 2407, Pen S; in combination with NXL-104
experimentalReadout: MIC (µg/mL)

(a) CC(C)(O/N=C(\C(=O)N[C@@H]1C(=O)N2C(C(=O)[O-])=C(C[n+]3ccc4n3CCN4Cc3ccc(C(=N)N)cc3)CS[C@H]12)c1csc(N)n1)C(=O)O
(b) CC(C)(O/N=C(\C(=O)N[C@@H]1C(=O)N2C(C(=O)[O-])=C(C[n+]3ccccc3)CS[C@H]12)c1csc(N)n1)C(=O)O [CAZ, ceftazidime, reference compound]
Between these two entries, a and b , state which has the higher MIC. // return label of chosen record
b
(b: 32.00 µg/mL, a: 0.12 µg/mL)
